Target: 5-HT1A receptor (Homo sapiens, UniProt P08908)
Construct: EGFP; expressed in transfected cells
Sequence (P08908 1-422): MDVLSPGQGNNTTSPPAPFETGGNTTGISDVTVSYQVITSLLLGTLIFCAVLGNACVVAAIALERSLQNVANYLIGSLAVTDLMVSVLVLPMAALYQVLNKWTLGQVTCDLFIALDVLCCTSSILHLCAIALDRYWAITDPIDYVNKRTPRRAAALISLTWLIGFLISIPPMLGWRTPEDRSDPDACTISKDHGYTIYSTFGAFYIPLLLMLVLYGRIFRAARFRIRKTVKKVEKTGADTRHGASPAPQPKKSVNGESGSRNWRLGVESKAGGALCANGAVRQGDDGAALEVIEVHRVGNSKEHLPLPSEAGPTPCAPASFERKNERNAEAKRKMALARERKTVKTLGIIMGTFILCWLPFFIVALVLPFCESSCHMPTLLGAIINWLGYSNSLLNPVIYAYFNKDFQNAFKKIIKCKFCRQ
Assay: cAMP level (HTRF) in HEK293 cells that overexpress the 5-HT1AR gene
Type: cell-based
pIC50: −log10 of the molar value.
measured_parameter: pIC50

Use these answered entries as a reference point.
molecule | system_under_test | pIC50
Cl.O=[N+]([O-])c1ccc2nc(N3CCN(CC4CCC4)CC3)ccc2c1 [AB22] | 5-HT1A receptor (Homo sapiens, UniProt P08908) | 4.12
CC(=O)N1CCC(c2ccc(F)cc2)C(COc2ccc3c(c2)OCO3)C1 (centres unmarked) [N-Ac-Paroxetine, reference compound] | 5-HT1A receptor (Homo sapiens, UniProt P08908) | 6.00
Cl.O=[N+]([O-])c1ccc2nc(N3CCN(CC4CCCCC4)CC3)ccc2c1 [AB21] | 5-HT1A receptor (Homo sapiens, UniProt P08908) | 8.70
Cl.O=[N+]([O-])c1ccc2nc(N3CCN(Cc4ccc(F)cc4)CC3)ccc2c1 [AB5A] | 5-HT1A receptor (Homo sapiens, UniProt P08908) | 4.01

[1] CCCCCCCCCCCN1CCN(c2ccc3cc([N+](=O)[O-])ccc3n2)CC1.Cl [AZ07]
[2] COCCCC/C(=N\OCCNC(C)=O)c1ccc(C(F)(F)F)cc1 [N-Ac-Fluvoxamine, reference compound]
[3] CCCCCCCCCN1CCN(c2ccc3cc([N+](=O)[O-])ccc3n2)CC1 [AZ05]
[4] Fc1ccc([C@@H]2CCNC[C@H]2COc2ccc3c(c2)OCO3)cc1 [Paroxetine, paroxetine, reference compound]
Your job: order these 4 records by pIC50, ascending. // list labels; follow requested order
2, 3, 1, 4
(2: 4.70, 3: 5.01, 1: 6.14, 4: 7.29)

Data provenance is paper PMC6214143.
